Measured values drawn from paper PMC7765952 for this set.

Test system: E. coli ATCC 25922
assayInfo: MIC by microdilution, E. coli ATCC 25922
Format: cell-based, Escherichia coli
reportedConditions: Escherichia coli, ATCC25922; E. coli ATCC 25922; read-out: MIC
Give measured MIC for each item. Keep answers brief.

Requested read-out: MIC. Entry: OCCCCn1cc([C+](c2cn(CCCCO)c3ccccc23)c2cn(CCCCO)c3ccccc23)c2ccccc21.[Cl-]
32 µg/mL

OCCCn1cc([C+](c2cn(CCCO)c3ccccc23)c2cn(CCCO)c3ccccc23)c2ccccc21.[Cl-] ?
> 64 µg/mL

OCCn1cc([C+](c2cn(CCO)c3ccccc23)c2cn(CCO)c3ccccc23)c2ccccc21.[Cl-] ?
16 µg/mL

OCCCCCCn1cc([C+](c2cn(CCCCCCO)c3ccccc23)c2cn(CCCCCCO)c3ccccc23)c2ccccc21.[Cl-] ?
8 µg/mL

C[C@H]1COc2c(N3CCN(C)CC3)c(F)cc3c(=O)c(C(=O)O)cn1c23 [Lf, levofloxacin, reference compound] ?
0.06 µg/mL

OCCCCCn1cc([C+](c2cn(CCCCCO)c3ccccc23)c2cn(CCCCCO)c3ccccc23)c2ccccc21.[Cl-] ?
8 µg/mL
